molecular target: DNA topoisomerase 2-alpha (Homo sapiens, UniProt P11388); experiment: Inhibition of human topoisomerase-2 alpha expressed in baculovirus infected insect cells assessed as reduction in enzyme-meditaed supercoiled pRYG DNA substrate relaxation at 100 uM in presence of buffer containing 2-mercaptoethanol after 30 mins by agarose gel electrophoresis method
Sequence (P11388 whole entry): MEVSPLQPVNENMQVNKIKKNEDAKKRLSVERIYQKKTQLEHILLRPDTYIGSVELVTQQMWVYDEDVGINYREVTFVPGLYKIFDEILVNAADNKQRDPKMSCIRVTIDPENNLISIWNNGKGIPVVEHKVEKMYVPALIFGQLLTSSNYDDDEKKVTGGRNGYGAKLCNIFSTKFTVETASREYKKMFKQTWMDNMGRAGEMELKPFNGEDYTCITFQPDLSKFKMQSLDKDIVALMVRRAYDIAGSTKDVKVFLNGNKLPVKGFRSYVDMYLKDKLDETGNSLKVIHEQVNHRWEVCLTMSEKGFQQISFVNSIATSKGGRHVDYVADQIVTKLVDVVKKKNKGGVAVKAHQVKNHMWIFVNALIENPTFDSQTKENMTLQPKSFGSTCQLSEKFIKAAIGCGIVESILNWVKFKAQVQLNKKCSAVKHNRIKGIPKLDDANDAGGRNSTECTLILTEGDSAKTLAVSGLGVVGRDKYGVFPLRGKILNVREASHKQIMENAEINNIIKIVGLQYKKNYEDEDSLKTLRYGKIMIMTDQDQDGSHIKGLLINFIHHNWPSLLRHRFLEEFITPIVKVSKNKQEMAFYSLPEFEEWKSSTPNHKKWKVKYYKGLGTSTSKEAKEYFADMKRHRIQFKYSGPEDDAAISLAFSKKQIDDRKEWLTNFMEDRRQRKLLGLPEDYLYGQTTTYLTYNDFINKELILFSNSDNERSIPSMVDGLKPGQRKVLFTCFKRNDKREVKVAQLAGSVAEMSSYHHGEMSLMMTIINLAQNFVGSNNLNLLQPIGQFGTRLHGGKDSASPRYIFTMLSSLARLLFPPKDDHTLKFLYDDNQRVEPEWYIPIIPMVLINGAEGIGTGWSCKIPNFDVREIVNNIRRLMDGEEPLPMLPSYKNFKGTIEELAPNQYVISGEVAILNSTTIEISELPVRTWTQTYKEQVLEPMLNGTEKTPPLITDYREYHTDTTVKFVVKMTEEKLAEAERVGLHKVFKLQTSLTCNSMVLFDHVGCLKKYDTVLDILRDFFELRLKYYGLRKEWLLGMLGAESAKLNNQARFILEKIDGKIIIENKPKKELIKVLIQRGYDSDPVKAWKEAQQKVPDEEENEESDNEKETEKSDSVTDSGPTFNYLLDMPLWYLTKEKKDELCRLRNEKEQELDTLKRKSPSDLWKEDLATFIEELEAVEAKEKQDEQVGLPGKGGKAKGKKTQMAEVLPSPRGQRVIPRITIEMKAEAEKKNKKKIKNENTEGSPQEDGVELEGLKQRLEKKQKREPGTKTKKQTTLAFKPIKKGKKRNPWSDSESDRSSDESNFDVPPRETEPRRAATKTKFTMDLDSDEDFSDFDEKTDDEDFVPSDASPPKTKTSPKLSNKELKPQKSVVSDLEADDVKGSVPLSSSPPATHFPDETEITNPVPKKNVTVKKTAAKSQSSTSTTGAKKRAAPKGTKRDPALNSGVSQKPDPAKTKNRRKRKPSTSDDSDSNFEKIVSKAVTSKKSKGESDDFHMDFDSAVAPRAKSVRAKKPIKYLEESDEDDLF
Activity calls are given as the source filed them. The rule behind the calls is not given here.
Reply using exactly one outcome from t for active, f for inactive

See these solved cases before continuing.
compound | testedOn | assignedLabel
COc1cc([C@@H]2c3cc4c(cc3[C@@H](O[C@@H]3O[C@@H]5CO[C@@H](C)O[C@H]5[C@H](O)[C@H]3O)[C@H]3COC(=O)[C@H]23)OCO4)cc(OC)c1O | DNA topoisomerase 2-alpha (Homo sapiens, UniProt P11388) | f
O=C1C(O)=C(C(c2ccc3c(c2)OCO3)c2c(O)c3ccccc3oc2=O)C(=O)c2ccccc21 (stereo not given) | DNA topoisomerase 2-alpha (Homo sapiens, UniProt P11388) | t
O=C1C(O)=C(C(c2ccc(F)cc2)c2c(O)c3ccccc3oc2=O)C(=O)c2ccccc21 (stereo not given) | DNA topoisomerase 2-alpha (Homo sapiens, UniProt P11388) | t
O=C1C(O)=C(C(c2ccc([N+](=O)[O-])cc2)c2c(O)c3ccccc3oc2=O)C(=O)c2ccccc21 (stereo not given) | DNA topoisomerase 2-alpha (Homo sapiens, UniProt P11388) | t
O=C1C(O)=C(C(c2ccccc2)c2c(O)c3ccccc3oc2=O)C(=O)c2ccccc21 (stereo not given) | DNA topoisomerase 2-alpha (Homo sapiens, UniProt P11388) | t

Moving on to another compound below.
In: Check the results log: what was the call for O=C1C(O)=C(C(c2ccc(Cl)cc2)c2c(O)c3ccccc3oc2=O)C(=O)c2ccccc21 (stereo not given) ?
Out: t

###

What inhibition was measured for each of the following?
molecular target: UniProt:P11388; experiment: Inhibition of human topoisomerase-2 alpha ATPase activity expressed in baculovirus infected insect cells assessed as disappearance of NADH at 100 uM using pBR322 DNA as substrate preincubated for 10 mins followed by ATP addition measured up to 35 mins by spectrophotometric based pyruvate kinase/lactate dehydrogenase coupled enzyme assay relative to control
One number for each entry, in %.

Some solved cases for reference:
compound | observable | observedValue
O=C1C(O)=C(C(c2ccc(F)cc2)c2c(O)c3ccccc3oc2=O)C(=O)c2ccccc21 (configuration not stated) | inhibition | 94
O=C1C(O)=C(C(c2ccccc2F)c2c(O)c3ccccc3oc2=O)C(=O)c2ccccc21 (configuration not stated) | inhibition | 82
O=C1C(O)=C(C(c2ccc(Cl)cc2)c2c(O)c3ccccc3oc2=O)C(=O)c2ccccc21 (configuration not stated) | inhibition | 94

Hey, can you go through the list below and give me inhibition for every item?
1. O=C1C(O)=C(C(c2ccc([N+](=O)[O-])cc2)c2c(O)c3ccccc3oc2=O)C(=O)c2ccccc21 (configuration not stated)
2. O=C1C(O)=C(C(c2ccc(Br)cc2)c2c(O)c3ccccc3oc2=O)C(=O)c2ccccc21 (configuration not stated)
3. O=C1C(O)=C(C(c2ccccc2)c2c(O)c3ccccc3oc2=O)C(=O)c2ccccc21 (configuration not stated)
4. O=C1C(O)=C(C(c2ccc3c(c2)OCO3)c2c(O)c3ccccc3oc2=O)C(=O)c2ccccc21 (configuration not stated)

Out:
61
96
94
94

###

biological target: UniProt:P11388; assay: Inhibition of human topoisomerase-2 alpha ATPase activity expressed in baculovirus infected insect cells assessed as disappearance of NADH at 30 uM using pBR322 DNA as substrate preincubated for 10 mins followed by ATP addition measured up to 35 mins by spectrophotometric based pyruvate kinase/lactate dehydrogenase coupled enzyme assay relative to control
Quick rule: inhibition of at least 60% means true (1), below that means false (0).

These solved cases illustrate the format of a correct answer.
molecule | assignedLabel
O=C1C(O)=C(C(c2ccc3c(c2)OCO3)c2c(O)c3ccccc3oc2=O)C(=O)c2ccccc21 (configuration not stated) | true (1)
O=C1C(O)=C(C(c2ccc([N+](=O)[O-])cc2)c2c(O)c3ccccc3oc2=O)C(=O)c2ccccc21 (configuration not stated) | false (0)
O=C1C(O)=C(C(c2ccccc2)c2c(O)c3ccccc3oc2=O)C(=O)c2ccccc21 (configuration not stated) | true (1)
O=C1C(O)=C(C(c2ccc(F)cc2)c2c(O)c3ccccc3oc2=O)C(=O)c2ccccc21 (configuration not stated) | true (1)
O=C1C(O)=C(C(c2ccc(Cl)cc2)c2c(O)c3ccccc3oc2=O)C(=O)c2ccccc21 (configuration not stated) | true (1)

In: Check if inhibition >= 60% (inclusive). Item: O=C1C(O)=C(C(c2ccccc2F)c2c(O)c3ccccc3oc2=O)C(=O)c2ccccc21 (configuration not stated)
Out: false (0)

In: Say whether O=C1C(O)=C(C(c2ccc(Br)cc2)c2c(O)c3ccccc3oc2=O)C(=O)c2ccccc21 (configuration not stated) shows inhibition of 60% or more.
Out: false (0)
